Source: patent US7880042B2

- System: lipopolysaccharide (LPS)-initiated secretion of the cytokine IL-8 in the human THP-1 monocyte cell line
- Assay method text: Inhibition of LPS-initiated IL-8 secretion in THP-1 cells
- Format: cell-based
- Conditions used: prior-art compounds (WO2005/034939); ratio TAT EC50 / IL8 IC50
API: label(entry) gives fulfilled if the entry's Diss. (TATEC50/IL8IC50) is strictly smaller than 0.2; on equality or larger values it gives not fulfilled.

Worked cases, answers included:
Molecule: CC1(C)CC(O)(C(F)(F)F)C(Nc2cccc3[nH]c(=O)ccc23)c2ccc(F)c(O)c21 (stereo not drawn) [reference compound]
Discrete label: not fulfilled
--
Molecule: Cc1ncc2c(NC3c4cc(Cl)c(F)c(O)c4C(C)(C)CC3(O)C(F)(F)F)cc(F)c(F)c2n1 (stereo not drawn) [reference compound]
Discrete label: fulfilled
--
Molecule: CC1(C)CC(O)(C(F)(F)F)C(Nc2cc(F)cc3[nH]ncc23)c2ccc(F)c(O)c21 (stereo not drawn) [reference compound]
Discrete label: not fulfilled
--
Molecule: CCC1CC(O)(C(F)(F)F)C(Nc2cccc3nc(C)ccc23)c2ccc(F)c(O)c21 (stereo not drawn) [reference compound]
Discrete label: not fulfilled
--
Molecule: Cc1ncc2c(NC3c4ccc(Cl)c(O)c4C(C)(C)CC3(O)C(F)(F)F)ccc(F)c2n1 (stereo not drawn) [reference compound]
Discrete label: fulfilled

Here's the next entry for you.
Confirm or reject: Diss. (TATEC50/IL8IC50) of Cc1ncc2c(NC3c4cc(C)c(F)c(O)c4C(C)(C)CC3(O)C(F)(F)F)ccc(F)c2n1 (stereo not drawn) [reference compound] lies strictly below 0.2
fulfilled
